testTarget: 16S ribosomal subunit RNA target
experimentSummary: Mass spectrometry based binding assay (FTICR), 16S
testParameters: Example 108
pKd: −log10 of the molar value.
Respond with 1 for pKd values of 6 and above, -1 for values below.

compound | labelClass
NCCCNCC1OC(OC2C(N)CC(N)C(O)C2OC2OC(CO)C(OC3OC(CN)C(O)C(O)C3N)C2O)C(N)C(O)C1O (stereo not drawn) [Compound 15b] | -1
CC(C)(C)OC(=O)NNCC1OC(OC2C(N)CC(N)C(O)C2OC2OC(CO)C(OC3OC(CN)C(O)C(O)C3N)C2O)C(N)C(O)C1O (stereo not drawn) [Compound 15d] | 1
NCC1OC(OC2C(CO)OC(OC3C(O)C(N)CC(N)C3OC3OC(CNCCc4ccccc4)C(O)C(O)C3N)C2O)C(N)C(O)C1O (stereo not drawn) [Compound 15j] | 1
NCC1OC(OC2C(CO)OC(OC3C(O)C(N)CC(N)C3OC3OC(CN4CCOCC4)C(O)C(O)C3N)C2O)C(N)C(O)C1O (stereo not drawn) [Compound 15c] | -1
CN(C)CC1OC(OC2C(N)CC(N)C(O)C2OC2OC(CO)C(OC3OC(CN)C(O)C(O)C3N)C2O)C(N)C(O)C1O (stereo not drawn) [Compound 15a] | 1

* * *

testTarget: 16S ribosomal subunit RNA target
experimentSummary: Mass spectrometry based binding assay (FTICR), 16S
testParameters: FTICR mass spectrometry; run at 100 nM RNA; Example 105
pKd: −log10 of the molar value.
measure: pKd

compound | resultValue
NCCCNCCOC1C(OC2C(O)C(N)CC(N)C2OC2OC(CO)C(O)C(O)C2N)OC(CO)C1O (stereo not drawn) [Compound 30b] | 5.04
NCC1OC(OC2C(CO)OC(OC3C(O)C(N)CC(N)C3OC3OC(CO)C(O)C(O)C3N)C2OCCNCc2ccc(N)nc2)C(N)C(O)C1O (stereo not drawn) [Compound 9s] | 7.00
NCC1OC(OC2C(CO)OC(OC3C(O)C(N)CC(N)C3OC3OC(CO)C(O)C(O)C3N)C2OCCNCc2ccccc2)C(N)C(O)C1O (stereo not drawn) [Compound 9q] | 7.00
NCCOC1C(OC2C(O)C(N)CC(N)C2OC2OC(CO)C(O)C(O)C2N)OC(CO)C1O (stereo not drawn) [Compound 30a] | 4.72
CN(C)CCOC[C@H]1O[C@@H](O[C@@H]2[C@@H](O)[C@H](N)C[C@H](N)[C@H]2O[C@H]2O[C@H](CO)[C@@H](O)[C@H](O)[C@H]2N)[C@H](O)[C@@H]1O[C@H]1O[C@@H](CN)[C@@H](O)[C@H](O)[C@H]1N [Compound 54] | 5.39
NCC1OC(OC2C(CO)OC(OC3C(O)C(N)CC(N)C3OC3OC(CO)C(O)C(O)C3N)C2OCCNc2cnc3ccccc3c2)C(N)C(O)C1O (stereo not drawn) [Compound 9m] | 7.00
NCC1OC(OC2C(CO)OC(OC3C(O)C(N)CC(N)C3OC3OC(CO)C(O)C(O)C3N)C2OCCNC2CCCNC2)C(N)C(O)C1O (stereo not drawn) [Compound 9j] | 7.00
NCC1OC(OC2C(CO)OC(OC3C(O)C(N)CC(N)C3OC3OC(CO)C(O)C(O)C3N)C2OCCNC2CCCCC2)C(N)C(O)C1O (stereo not drawn) [Compound 9n] | 7.00
NCC1OC(OC2C(CO)OC(OC3C(O)C(N)CC(N)C3OC3OC(CO)C(O)C(O)C3N)C2OCCNCCCc2ccccc2)C(N)C(O)C1O (stereo not drawn) [Compound 9x] | 6.00
NCC1OC(OC2C(CO)OC(OC3C(O)C(N)CC(N)C3OC3OC(CO)C(O)C(O)C3N)C2OCCNCc2nc3ccccc3[nH]2)C(N)C(O)C1O (stereo not drawn) [Compound 9e] | 5.41
NCCN(CCN)CCOC1C(OC2C(O)C(N)CC(N)C2OC2OC(CO)C(O)C(O)C2N)OC(CO)C1OC1OC(CN)C(O)C(O)C1N (stereo not drawn) [Compound 9h] | 5.04
NCC1OC(OC2C(CO)OC(OC3C(O)C(N)CC(N)C3OC3OC(CO)C(O)C(O)C3N)C2OCCNCCCCc2ccccc2)C(N)C(O)C1O (stereo not drawn) [Compound 9z] | 6.15

* * *

Test system: P. aurginosa ATCC 25416
experimentSummary: MIC, P. aurginosa ATCC 25416
Assay type: cell-based
testParameters: Example 110
Method: The MIC assays are carried out in 150 μL volume in duplicate in 96-well clear flat-bottom plates. The bacterial suspension from an overnight culture growth in appropriate medium is added to a solution of test compound in 4% DMSO in water. Final bacterial inoculum is approximately 10^5-10^6 CFU/well. […] Both ampicillin and tetracycline are used as antibiotic-positive controls in each screening assay for S. pyogenes, E. coli imp-, E. coli, S. aureus, E. faecalis, K. pneumoniae and P. vulgaris. […]
Measured MIC P. aurginosa ATCC 25416, listed per entry for reference.

compound | MIC P. aurginosa ATCC 25416
NCC1OC(OC2C(CO)OC(OC3C(O)C(N)CC(N)C3OC3OC(CO)C(O)C(O)C3N)C2OCCNCCN2C(=O)c3cccc4cccc(c34)C2=O)C(N)C(O)C1O (centres unmarked) [Compound 9ae] | 5 to 10 µM
NCC1OC(OC2C(CO)OC(OC3C(O)C(N)CC(N)C3OC3OC(CO)C(O)C(O)C3N)C2OCCN(CCCc2ccccc2)CCc2ccccc2)C(N)C(O)C1O (centres unmarked) [Compound 9ag] | 10 to 20 µM
NCC1OC(OC2C(CO)OC(OC3C(O)C(N)CC(N)C3OC3OC(CO)C(O)C(O)C3N)C2OCCNCCc2ccccc2)C(N)C(O)C1O (centres unmarked) [Compound 9p] | >40 µM
COc1ccc(CCNCCOC2C(OC3C(O)C(N)CC(N)C3OC3OC(CO)C(O)C(O)C3N)OC(CO)C2OC2OC(CN)C(O)C(O)C2N)cc1 (centres unmarked) [Compound 9aj] | >40 µM
NCC1OC(OC2C(CO)OC(OC3C(O)C(N)CC(N)C3OC3OC(CNCCc4ccccc4)C(O)C(O)C3N)C2O)C(N)C(O)C1O (centres unmarked) [Compound 15j] | >40 µM

* * *

System: E. Coli
experimentSummary: MIC, E. Coli
Type: cell-based
testParameters: Example 109

compound | MIC E. Coli.
CN(CCc1ccccc1)CC1OC(OC2C(N)CC(N)C(O)C2OC2OC(CO)C(OC3OC(CN)C(O)C(O)C3N)C2O)C(N)C(O)C1O (centres unmarked) [Compound 15k] | 2.5-5^ uM
NCC1OC(OC2C(CO)OC(OC3C(O)C(N)CC(N)C3OC3OC(CNCCCc4ccccc4)C(O)C(O)C3N)C2O)C(N)C(O)C1O (centres unmarked) [Compound 15l] | 0.6 to 1.2 µM
NCC1OC(OC2C(CO)OC(OC3C(O)C(N)CC(N)C3OC3OC(CNCCc4ccc(C5CCCCC5)cc4)C(O)C(O)C3N)C2O)C(N)C(O)C1O (centres unmarked) [Compound 15m] | 1.3 to 2.5 µM
COc1ccc(CCNCC2OC(OC3C(N)CC(N)C(O)C3OC3OC(CO)C(OC4OC(CN)C(O)C(O)C4N)C3O)C(N)C(O)C2O)cc1 (centres unmarked) [Compound 15r] | 1.3 to 2.5 µM
Cc1ccc(CCNCC2OC(OC3C(N)CC(N)C(O)C3OC3OC(CO)C(OC4OC(CN)C(O)C(O)C4N)C3O)C(N)C(O)C2O)cc1 (centres unmarked) [Compound 15g] | 2.5-5^ uM
NCC1OC(OC2C(CO)OC(OC3C(O)C(N)CC(N)C3OC3OC(CNCCc4ccc(F)cc4)C(O)C(O)C3N)C2O)C(N)C(O)C1O (centres unmarked) [Compound 15o] | 0.6 to 1.2 µM
NCC1OC(OC2C(CO)OC(OC3C(O)C(N)CC(N)C3OC3OC(CNCCc4ccc(C(F)(F)F)cc4)C(O)C(O)C3N)C2O)C(N)C(O)C1O (centres unmarked) [Compound 15q] | 1.3 to 2.5 µM
NCC1OC(OC2C(CO)OC(OC3C(O)C(N)CC(N)C3OC3OC(CN4CCC5CCCCC54)C(O)C(O)C3N)C2O)C(N)C(O)C1O (centres unmarked) [Compound 15s] | 1.3 to 2.5 µM

* * *

testTarget: 16S ribosomal subunit RNA target
experimentSummary: Mass spectrometry based binding assay (FTICR), 16S
testParameters: Example 106
Rule for this label: met means Kd is less than 0.9 µM; not met means Kd is at least 0.9 µM.

compound | labelClass
NCC1OC(OC2C(CO)OC(OC3C(O)C(N)CC(N)C3OC3OC(CO)C(O)C(O)C3N)C2OCCNC23CC4CC(CC(O)(C4)C2)C3)C(N)C(O)C1O (stereo not drawn) | not met
NC[C@@H]1O[C@H](O[C@H]2[C@@H](O)[C@H](O[C@@H]3[C@@H](O)[C@H](N)C[C@H](N)[C@H]3O[C@H]3O[C@H](CO)[C@@H](O)[C@H](O)[C@H]3N)O[C@@H]2CO)[C@H](N)[C@@H](O)[C@@H]1O [paromomycin, reference compound] | met
CC(=O)N(CCOC1C(OC2C(O)C(N)CC(N)C2OC2OC(CO)C(O)C(O)C2N)OC(CO)C1OC1OC(CN)C(O)C(O)C1N)CCc1ccccc1 (stereo not drawn) | not met
NCC1OC(OC2C(CO)OC(OC3C(O)C(N)CC(N)C3OC3OC(CO)C(O)C(O)C3N)C2OCCN(CCc2ccccc2)C(=O)c2ccccc2)C(N)C(O)C1O (stereo not drawn) | not met
NC[C@@H]1O[C@H](O[C@H]2[C@@H](O)[C@H](O[C@@H]3[C@@H](O)[C@H](N)C[C@H](N)[C@H]3O[C@H]3O[C@H](CN)[C@@H](O)[C@H](O)[C@H]3N)O[C@@H]2CO)[C@H](N)[C@@H](O)[C@@H]1O [Neomycin B, reference compound] | met

Hey, just so you know, these numbers are from patent US8569264B2.
